assayName: Drug repurposing screens with cells derived from glioblastoma tumor samples (AID 1345199); note: potency is the fitted concentration of half-maximal effect; nearly all actives have a fitted effect of over 40% in size
experimentalSetup: GBM patient neurospheres viability, ATP luminescence, 48 h; tumour line D
Results filed as inconclusive are left out. Active and inactive are the calls of the source. Calls come from the whole dose curve; as a rule, active = well fitted inhibition curve with a large enough effect; inconclusive = small, poorly fitted or top-dose-only effect; inactive = flat fitted curve, though single readings scatter.
The entries below are paired with their reported Potency.

CN1CCN(C2=Nc3ccccc3Sc3ccc(Cl)cc32)CC1; 17.8 µM (active)

Measured Potency, `CCc1oc2ccccc2c1C(=O)c1cc(Br)c(O)c(Br)c1` : 35.5 µM (active)

Measured Potency, O=C1C(=O)c2ccccc2C(O)=C1C1CCC(c2ccc(Cl)cc2)CC1 (centres undefined) : 8.91 µM (active)

Measured Potency, O=C(Nc1ccccc1)OCC(CN1CCCCC1)OC(=O)Nc1ccccc1 (centres undefined) : 10 µM (active)

---

targetEntity: Muscarinic acetylcholine receptor M1 (Rattus norvegicus) (UniProt P08482)
Sequence (P08482 whole entry, looked up): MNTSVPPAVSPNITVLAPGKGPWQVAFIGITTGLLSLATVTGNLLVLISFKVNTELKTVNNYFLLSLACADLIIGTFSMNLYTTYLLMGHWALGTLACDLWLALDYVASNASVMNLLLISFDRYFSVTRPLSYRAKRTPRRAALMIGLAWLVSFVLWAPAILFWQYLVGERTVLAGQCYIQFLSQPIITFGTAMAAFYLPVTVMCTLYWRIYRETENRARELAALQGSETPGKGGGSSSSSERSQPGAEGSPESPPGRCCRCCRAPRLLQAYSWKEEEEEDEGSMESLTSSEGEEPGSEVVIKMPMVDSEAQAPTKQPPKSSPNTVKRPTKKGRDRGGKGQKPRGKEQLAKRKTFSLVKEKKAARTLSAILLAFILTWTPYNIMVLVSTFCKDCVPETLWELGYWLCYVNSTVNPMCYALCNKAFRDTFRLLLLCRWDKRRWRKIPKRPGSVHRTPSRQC
assayName: qHTS Assay for Antagonists of Acetylcholine Muscarinic M1 Receptor: Measurement of IP-One Response (AID 944); note: nearly all actives have a fitted effect of over 75% in size; note: potency is the fitted concentration of half-maximal effect
experimentalSetup: CHO-M1 cells, IP-One HTRF, antagonist mode; series mostly up to 46.1 µM
Records with an inconclusive call do not appear. The source made the active and inactive calls. The call rests on the fitted dose curve; in most records, active means well fitted inhibition curve with a large enough effect; inconclusive means small, poorly fitted or top-dose-only effect; inactive means no such curve, though single readings can be large or run the other way.
resultType: Potency

NC(N)=NCc1cccc(I)c1; inactive
CN(C)CCC[C@@]1(c2ccc(F)cc2)OCc2cc(C#N)ccc21; 10 µM (active)
CN=C(N)NCCC[C@H](N)C(=O)O; inactive
CC(C)(C)NC[C@H](O)COc1nsnc1N1CCOCC1; inactive

---

assayName: qHTS profiling for inhibitors of Plasmodium falciparum proliferation (AID 504749); note: nearly all actives have a fitted effect of over 60% in size;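 for activity, negative = inhibition: 0% = DMSO vehicle and full inhibition = artemisinin control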
experimentalSetup: P. falciparum in erythrocytes, SYBR Green DNA, 72 h; at 28.7 µM (top of the series); parasite line A
Records with an inconclusive call do not appear.
The entries below are paired with their reported activity, negative = inhibition.
Could you give me the number in %? Just the number is fine.

Recorded activity, negative = inhibition, per entry:
CCCCC(CC)COC(=O)c1ccc(N(C)C)cc1 (configuration not stated); 7.25
CC1(COc2ccc(CC3SC(=O)NC3=O)cc2)CCCCC1 (configuration not stated); 11
OC1C(O)C(O)C(O)C(O)C1O (configuration not stated); 1.75
CN1CCN(c2cc3c(cc2F)c(=O)c(C(=O)O)cn3-c2ccc(F)cc2)CC1; -21.3
O=C(O)P(=O)(O)O; 3.96
CCOc1ccccc1OCCN[C@H](C)Cc1ccc(OC)c(S(N)(=O)=O)c1; 7.23
CCCCCCCCCCCCCCCC(=O)O; -0.389
CCC(CC)(CC(=O)Nc1cccc(/C=C/c2nc(C3CCC3)cs2)c1)C(=O)O; -2.66

Measured activity, negative = inhibition, `CN1CCN(CCC(=O)N2c3ccccc3Sc3ccc(C(F)(F)F)cc32)CC1` : 8.92

Measured activity, negative = inhibition, `CCN(CC)CCOc1ccccc1C(=O)CCc1ccccc1` : 2.97

Measured activity, negative = inhibition, `CCN(CC)CCOC(=O)C1(c2ccccc2)CCCC1` : -50.7

Measured activity, negative = inhibition, CCC(C(=O)OCCOCCN(CC)CC)c1ccccc1 (configuration not stated) : 5.84

---

assayName: qHTS assay for measurement of the activity of small molecule inhibitors on Zika virus induced Caspase-3 activity in human iPSC derived neural progenitor cells (hNPCs) (AID 1224857); note: % of control where 0% means no effect; nearly all actives have a fitted effect of over 65% in size
experimentalSetup: hNPCs ZIKV-induced caspase-3/7, Caspase-Glo luminescence, 6 h; series mostly up to 45.7 µM
Results filed as inconclusive are left out. The source made the active and inactive calls. Calls follow the shape of the dose curve; as a rule, active = well fitted inhibition curve with a large enough effect; inconclusive = small, poorly fitted or top-dose-only effect; inactive = no such curve, though single readings can be large or run the other way.
resultType: outcome

Recorded outcome, per entry:
COc1ccc(C(=O)c2ccccc2O)c(O)c1; inactive
O=C(O)C(Cc1cc(I)c(O)c(I)c1)c1ccccc1 (centres undefined); inactive
CCOC(=O)Nc1ccc2c(c1)N(C(=O)CCN1CCOCC1)c1ccccc1S2; inactive
CN1CCN(c2c(F)cc3c(=O)c(C(=O)O)cn4c3c2SCC4)CC1; inactive

Measured outcome, `CNCCc1ccccn1` : inactive

Measured outcome, CC(C)[N+](C)(C)CC(O)COc1cccc2ccccc12 (centres undefined) : inactive

---

Test system: Tov112D
assayName: Primary qHTS to identify gynecologic anti-cancer compounds using libraries of approved drugs and bioactive compounds (AID 1345084); note: nearly all actives have a fitted effect of over 55% in size
experimentalSetup: Gynecologic cancer cell panel viability, ATPlite luminescence, 48 h; series mostly up to 57.5 µM
Inconclusive results are not listed. Active and inactive are the calls of the source. Calls follow the shape of the dose curve; as a rule, active = well fitted cell-killing curve with a large enough effect; inconclusive = small, poorly fitted or top-dose-only effect, or effect the other way; inactive = flat fitted curve, though single readings scatter.
resultType: outcome

Recorded outcome, per entry:
NC(=O)c1ccccc1O; inactive
CCN(CC)CCOC(=O)C1(c2ccccc2)CCCC1; inactive
CN1CCN(c2c(F)cc3c(=O)c(C(=O)O)cn4c3c2SCC4)CC1; inactive
COc1cc(C(=S)N2CCOCC2)ccc1O; inactive
CNCCCCOc1ccccc1Cc1ccccc1; inactive
NS(=O)(=O)Cc1noc2ccccc12; inactive

Here is the next item to consider.
Noted outcome for `c1ccc(-c2nc[nH]c2-c2ccccc2)cc1` , tested on Tov112D: inactive

---

System: Hek293T
assayName: Primary qHTS to identify gynecologic anti-cancer compounds using libraries of approved drugs and bioactive compounds (AID 1345084); note: nearly all actives have a fitted effect of over 55% in size
experimentalSetup: Gynecologic cancer cell panel viability, ATPlite luminescence, 48 h, control line for the selectivity index; series mostly up to 57.5 µM
Records with an inconclusive call do not appear. Active and inactive are the calls of the source. Calls come from the whole dose curve; as a rule, active = well fitted cell-killing curve with a large enough effect; inconclusive = small, poorly fitted or top-dose-only effect, or effect the other way; inactive = flat fitted curve, though single readings scatter.
# valid calls are true for active, false for inactive; nothing else

Past entries and their recorded results:
CO[C@]12C[C@@H](COC(=O)c3cncc(Br)c3)CN(C)[C@@H]1Cc1cn(C)c3cccc2c13; false
COc1ccc(S(=O)(=O)N2c3ccc(Cl)cc3[C@@](O)(c3ccccc3Cl)[C@H]2C(=O)N2CCC[C@@H]2C(N)=O)cc1OC; false

## Task What outcome does the record of this test show for CC[N+](C)(CC)CCOC(=O)C(O)(c1ccccc1)C1CCCCC1 (stereo unspecified) ?
## Result false

## Task What outcome does the record of this test show for `OC[C@H]1O[C@@H](Oc2ccc(O)cc2)[C@H](O)[C@@H](O)[C@@H]1O` ?
## Result false

## Task What outcome does the record of this test show for `CC(=O)N[C@@H](CCC(=O)O)C(=O)O` ?
## Result false

## Task What outcome does the record of this test show for `Cc1nc(-c2ccc(Cl)cc2)oc1COC(C)(C)C(=O)O` ?
## Result false

## Task What outcome does the record of this test show for `CCN1/C(=C/C=C/c2sc3ccccc3[n+]2CC)Sc2ccccc21` ?
## Result true

---

System: Dd2
assayName: qHTS profiling for inhibitors of Plasmodium falciparum proliferation (AID 504749); note: nearly all actives have a fitted effect of over 60% in size
experimentalSetup: P. falciparum in erythrocytes, SYBR Green DNA, 72 h; series mostly up to 28.7 µM
Inconclusive results are not listed. The source made the active and inactive calls. The call rests on the fitted dose curve; in most records, active means well fitted inhibition curve with a large enough effect; inconclusive means small, poorly fitted or top-dose-only effect; inactive means flat fitted curve, though single readings scatter.
# valid calls are yes (1) for active, no (0) for inactive; nothing else

C[N+]1(CC2COC(c3ccccc3)(C3CCCCC3)O2)CCCCC1 (stereo not given); yes (1)
Nc1ccc(S(=O)(=O)Nc2cnc3ccccc3n2)cc1; no (0)
COc1cc([C@H]2Oc3cc([C@H]4Oc5cc(O)cc(O)c5C(=O)[C@@H]4O)ccc3O[C@@H]2CO)ccc1O; no (0)
O=C(O)CCc1nc2ccccc2[nH]1; yes (1)
O=C(CCN1CCN2CCCC2C1)N1c2ccccc2Sc2ccc(Cl)cc21 (stereo not given); yes (1)
C#C[C@]1(O)CC[C@H]2[C@@H]3CCC4=CC(=O)CC[C@@H]4[C@H]3CC[C@@]21CC; no (0)

## Task What outcome does the record of this test show for `COc1cc(NS(=O)(=O)c2ccc(N)cc2)ncn1` ?
## Result no (0)

## Task What outcome does the record of this test show for `CCCCCCCCCCCCCC[N+](C)(C)Cc1ccccc1` ?
## Result yes (1)

## Task What outcome does the record of this test show for `CC(=O)Nc1ncc([N+](=O)[O-])s1` ?
## Result no (0)

## Task What outcome does the record of this test show for `CCOc1ccccc1OCCN[C@H](C)Cc1ccc(OC)c(S(N)(=O)=O)c1` ?
## Result no (0)

## Task What outcome does the record of this test show for `COc1cc(C(=S)N2CCOCC2)ccc1O` ?
## Result no (0)

## Task What outcome does the record of this test show for `CC1=C(C(=O)O)N2C(=O)[C@@H](NC(=O)[C@H](N)c3ccccc3)[C@H]2SC1` ?
## Result no (0)

---

Tested on: CP286
assayName: qHTS profiling for inhibitors of Plasmodium falciparum proliferation (AID 504749); note: nearly all actives have a fitted effect of over 60% in size
experimentalSetup: P. falciparum in erythrocytes, SYBR Green DNA, 72 h; series mostly up to 28.7 µM
Results filed as inconclusive are left out. The source made the active and inactive calls. The call rests on the fitted dose curve; in most records, active means well fitted inhibition curve with a large enough effect; inconclusive means small, poorly fitted or top-dose-only effect; inactive means flat fitted curve, though single readings scatter.
# valid calls are active, inactive; nothing else

CC(C)Cc1ccc(CC(=O)O)cc1; inactive
CCC(C(=O)OCCOCCN(CC)CC)c1ccccc1 (stereo not given); inactive
C#C[C@]1(O)CC[C@H]2[C@@H]3CCC4=Cc5oncc5C[C@]4(C)[C@H]3CC[C@@]21C; inactive

## Task What outcome does the record of this test show for `CCOc1ccccc1OCCN[C@H](C)Cc1ccc(OC)c(S(N)(=O)=O)c1` ?
## Result inactive

## Task What outcome does the record of this test show for `CCCCCCCCCCCCCCCC(=O)O` ?
## Result inactive

## Task What outcome does the record of this test show for `O=C(c1ccc(F)cc1)C1CCN(CCn2c(=S)[nH]c3ccccc3c2=O)CC1` ?
## Result active

## Task What outcome does the record of this test show for `Cc1cc(CC(=O)O)c(C)n1-c1ccc(Cl)cc1` ?
## Result inactive
